Target: T1, Formyl-Peptide Receptor 1 (UniProt P21462 1-350, limits assumed)
T1 sequence (looked up): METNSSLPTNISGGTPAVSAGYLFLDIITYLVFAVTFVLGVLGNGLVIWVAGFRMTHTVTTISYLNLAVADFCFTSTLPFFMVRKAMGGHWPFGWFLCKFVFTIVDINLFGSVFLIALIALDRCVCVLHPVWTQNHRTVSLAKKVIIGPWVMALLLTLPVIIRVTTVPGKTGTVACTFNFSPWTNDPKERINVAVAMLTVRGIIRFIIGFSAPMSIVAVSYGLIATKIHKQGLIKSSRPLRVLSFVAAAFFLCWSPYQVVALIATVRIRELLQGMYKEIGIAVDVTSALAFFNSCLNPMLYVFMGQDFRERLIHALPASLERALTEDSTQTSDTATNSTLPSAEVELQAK
Experimental protocol: cell-based or functional assay
Bridges are numbered along the chain shown (N, C = ends). [ ]: non-standard residue; d: D form. Phe(4-CF3) = N[C@@H](Cc1ccc(C(F)(F)F)cc1)C(=O)O; Oic = O=C(O)[C@@H]1C[C@@H]2CCCC[C@@H]2N1; Pro(4S-NH2) = N[C@@H]1CN[C@H](C(=O)O)C1; Dab = NCC[C@H](N)C(=O)O
Exam item: assign Criterion met to entries whose β-Arrestin IC50 is below 60 nM and Criterion not met to entries at or above 60 nM. Note that a value of exactly 60 nM receives Criterion not met.

Recorded results for 6 binders are shown here.
Binder	Answer label
cyclo(YHKCHG[dP]WTICYEE[dP]P) (disulfide 4-11; SMILES CC[C@H](C)[C@@H]1NC(=O)[C@H]([C@@H](C)O)NC(=O)[C@H](Cc2c[nH]c3ccccc23)NC(=O)[C@H]2CCCN2C(=O)CNC(=O)[C@H](Cc2c[nH]cn2)NC(=O)[C@@H]2CSSC[C@H](NC1=O)C(=O)N[C@@H](Cc1ccc(O)cc1)C(=O)N[C@@H](CCC(=O)O)C(=O)N[C@@H](CCC(=O)O)C(=O)N1CCC[C@@H]1C(=O)N1CCC[C@H]1C(=O)N[C@@H](Cc1ccc(O)cc1)C(=O)N[C@@H](Cc1c[nH]cn1)C(=O)N[C@@H](CCCCN)C(=O)N2) [cyclo(-Tyr-His-Lys-Cys-His-Gly-^DPro-Trp-Thr-Ile-Cys-Tyr-Glu-Glu-^DPro-Pro-)]	Criterion met
cyclo(YHKCHG[dP]WTICYEK[dP][Oic]) (disulfide 4-11) [cyclo(-Tyr-His-Lys-Cys-His-Gly-^DPro-Trp-Thr-Ile-Cys-Tyr-Glu-Lys-^DPro-Oic-)]	Criterion not met
cyclo(YHKCHG[dP]WTICYEK[dP][Pro(4S-NH2)]) (disulfide 4-11) [cyclo(-Tyr-His-Lys-Cys-His-Gly-^DPro-Trp-Thr-Ile-Cys-Tyr-Glu-Lys-^DPro-Pro((4S)NH2)-)]	Criterion not met
cyclo(YHICHG[dP]WTICYEK[dP]P) (disulfide 4-11; SMILES CC[C@H](C)[C@@H]1NC(=O)[C@H](Cc2c[nH]cn2)NC(=O)[C@H](Cc2ccc(O)cc2)NC(=O)[C@@H]2CCCN2C(=O)[C@H]2CCCN2C(=O)[C@H](CCCCN)NC(=O)[C@H](CCC(=O)O)NC(=O)[C@H](Cc2ccc(O)cc2)NC(=O)[C@@H]2CSSC[C@H](NC1=O)C(=O)N[C@@H](Cc1c[nH]cn1)C(=O)NCC(=O)N1CCC[C@@H]1C(=O)N[C@@H](Cc1c[nH]c3ccccc13)C(=O)N[C@@H]([C@@H](C)O)C(=O)N[C@@H]([C@@H](C)CC)C(=O)N2) [cyclo(-Tyr-His-Ile-Cys-His-Gly-^DPro-Trp-Thr-Ile-Cys-Tyr-Glu-Lys-^DPro-Pro-)]	Criterion met
cyclo(YHACWG[dP]WTICYWK[dP]P) (disulfide 4-11; SMILES CC[C@H](C)[C@@H]1NC(=O)[C@H]([C@@H](C)O)NC(=O)[C@H](Cc2c[nH]c3ccccc23)NC(=O)[C@H]2CCCN2C(=O)CNC(=O)[C@H](Cc2c[nH]c3ccccc23)NC(=O)[C@@H]2CSSC[C@H](NC1=O)C(=O)N[C@@H](Cc1ccc(O)cc1)C(=O)N[C@@H](Cc1c[nH]c3ccccc13)C(=O)N[C@@H](CCCCN)C(=O)N1CCC[C@@H]1C(=O)N1CCC[C@H]1C(=O)N[C@@H](Cc1ccc(O)cc1)C(=O)N[C@@H](Cc1c[nH]cn1)C(=O)N[C@@H](C)C(=O)N2) [cyclo(-Tyr-His-Ala-Cys-Trp-Gly-^DPro-Trp-Thr-Ile-Cys-Tyr-Trp-Lys-^DPro-Pro-)]	Criterion not met
cyclo(YHKC[Phe(4-CF3)]G[dP]WTICYEK[dP]P) (disulfide 4-11; SMILES CC[C@H](C)[C@@H]1NC(=O)[C@H]([C@@H](C)O)NC(=O)[C@H](Cc2c[nH]c3ccccc23)NC(=O)[C@H]2CCCN2C(=O)CNC(=O)[C@H](Cc2ccc(C(F)(F)F)cc2)NC(=O)[C@@H]2CSSC[C@H](NC1=O)C(=O)N[C@@H](Cc1ccc(O)cc1)C(=O)N[C@@H](CCC(=O)O)C(=O)N[C@@H](CCCCN)C(=O)N1CCC[C@@H]1C(=O)N1CCC[C@H]1C(=O)N[C@@H](Cc1ccc(O)cc1)C(=O)N[C@@H](Cc1c[nH]cn1)C(=O)N[C@@H](CCCCN)C(=O)N2) [cyclo(-Tyr-His-Lys-Cys-Phe(4CF3)-Gly-^DPro-Trp-Thr-Ile-Cys-Tyr-Glu-Lys-^DPro-Pro-)]	Criterion not met

**Q:** Determine whether this binder shows β-Arrestin IC50 lower than 60 nM (ties excluded): cyclo([Dab]HKCWG[dP]WTICYEK[dP]P) (disulfide 4-11; SMILES CC[C@H](C)[C@@H]1NC(=O)[C@H]([C@@H](C)O)NC(=O)[C@H](Cc2c[nH]c3ccccc23)NC(=O)[C@H]2CCCN2C(=O)CNC(=O)[C@H](Cc2c[nH]c3ccccc23)NC(=O)[C@@H]2CSSC[C@H](NC1=O)C(=O)N[C@@H](Cc1ccc(O)cc1)C(=O)N[C@@H](CCC(=O)O)C(=O)N[C@@H](CCCCN)C(=O)N1CCC[C@@H]1C(=O)N1CCC[C@H]1C(=O)N[C@@H](CCN)C(=O)N[C@@H](Cc1c[nH]cn1)C(=O)N[C@@H](CCCCN)C(=O)N2) [cyclo(-Dab-His-Lys-Cys-Trp-Gly-^DPro-Trp-Thr-Ile-Cys-Tyr-Glu-Lys-^DPro-Pro-)]
**A:** Criterion not met

**Q:** Determine whether this binder shows β-Arrestin IC50 lower than 60 nM (ties excluded): cyclo(YHKCHG[dP]WTLCYEK[dP]P) (disulfide 4-11; SMILES CC(C)C[C@@H]1NC(=O)[C@H]([C@@H](C)O)NC(=O)[C@H](Cc2c[nH]c3ccccc23)NC(=O)[C@H]2CCCN2C(=O)CNC(=O)[C@H](Cc2c[nH]cn2)NC(=O)[C@@H]2CSSC[C@H](NC1=O)C(=O)N[C@@H](Cc1ccc(O)cc1)C(=O)N[C@@H](CCC(=O)O)C(=O)N[C@@H](CCCCN)C(=O)N1CCC[C@@H]1C(=O)N1CCC[C@H]1C(=O)N[C@@H](Cc1ccc(O)cc1)C(=O)N[C@@H](Cc1c[nH]cn1)C(=O)N[C@@H](CCCCN)C(=O)N2) [cyclo(-Tyr-His-Lys-Cys-His-Gly-^DPro-Trp-Thr-Leu-Cys-Tyr-Glu-Lys-^DPro-Pro-)]
**A:** Criterion not met
